Test system: SK-MEL-5 melanoma
assay-method-text: NCI-60 one-dose screen, 48 h
experimental-parameters: 10 µM
About 83,000 compounds went through this panel and 20% of them were active in at least one assay; those are over-represented in the sample as a whole. The source made the active and inactive calls. How the source made its calls: active means growth percent below 10; inactive means the rest.
Classes used: T = active, F = inactive

> print(dat)
                                smiles.text  assigned.class
1  C=CCn1c(SCC(=O)Nc2ccc(C(=O)/C=C/c3cc(OC)c(OC)c(OC)c3)cc2)nnc1-c1cc(-c2ccc(Cl)cc2)nc2ccccc12               F
2  CCn1c(SCc2ccc(C)cc2)nnc1-c1nn(-c2ccc(Cl)cc2Cl)c(-c2ccc(Cl)cc2)c1C               T
3  CN(C)CCOc1cccc(NC2=C(Cl)C(=O)C(Nc3cccc(OCCN(C)C)c3)=C(Cl)C2=O)c1               T
4    S=C1N(c2ccccc2)CN(C2CCCCC2)CN1c1ccccc1               F

* * *

Test system: PC-3 prostate
assay-method-text: NCI-60 one-dose screen, 48 h (100 = growth as untreated, 0 = no growth, -100 = all killed)
experimental-parameters: 10 µM
This is part of a sample that, as a whole, favours compounds with a hit. Of some 83,000 tested, about 20% had one in any assay.
experimental-endpoint: growth (%)

> print(dat)
                                    compound    target.desc  experimental.endpoint  units.of.measure  result.number
 1  CCc1cc(Cl)c(OC)c(C(=O)NCC2CCCN2CC)c1O (stereo unspecified)  PC-3 prostate                 growth                 %           73.7
 2  CCOC(=O)c1cc(C(=O)c2cc(OC)cc(OC)c2)n2nc(C)ccc12  PC-3 prostate                 growth                 %             25
 3  CC1C(=NC(=O)c2cnccn2)C(C)C(c2ccc(Cl)cc2)NC1c1ccncc1 (stereo unspecified)  PC-3 prostate                 growth                 %           75.6
 4  O=C1OC(C(Cl)(Cl)Cl)OC1C(Cl)(Cl)Cl (stereo unspecified)  PC-3 prostate                 growth                 %           86.8
 5          c1ccc2c(c1)Cc1ccccc1N2CCN1CCCCC1  PC-3 prostate                 growth                 %           82.7
 6  COc1ccc(-c2n[nH]nc2-c2cc(OC)c(OC)c(OC)c2)cc1  PC-3 prostate                 growth                 %           23.4
 7  CC(CN(C)C)Oc1ccc(OC(C)CN(C)C)c2c1C(=O)c1ccccc1C2=O (stereo unspecified)  PC-3 prostate                 growth                 %           38.3
 8  COc1cccc(C2C(C#N)=C(N)Oc3cc(N)ccc32)c1 (stereo unspecified)  PC-3 prostate                 growth                 %           25.4
 9     Cc1ccc(NC(=O)N2CCCCC2)cc1[N+](=O)[O-]  PC-3 prostate                 growth                 %           76.6
10  COc1ccc(-c2nn(-c3cccc(Cl)c3)cc2-c2c(C#N)c(N)n(N)c(=O)c2C#N)cc1  PC-3 prostate                 growth                 %             54
11    CCn1c(SC/C(=N/O)c2ccccc2)nnc1-c1ccccc1  PC-3 prostate                 growth                 %           81.2

* * *

Below: a set of entries, each annotated with reported growth.
Tested on: SF-539 CNS
assay-method-text: NCI-60 one-dose screen, 48 h (100 = growth as untreated, 0 = no growth, -100 = all killed)
experimental-parameters: 10 µM
Compounds without any hit were thinned out: in the full panel of roughly 83,000, 20% have a hit.
experimental-endpoint: growth (%)

> print(dat)
                                   compound  result.number
1  CSc1ccc(-c2cc(-c3ccc(NC(=O)CCCN4CCCC4)cc3)nc(-c3ccc(NC(=O)CCCN4CCCC4)cc3)c2)cc1           75.7
2  CCOc1ccccc1/C=N\N=C(\N)N/N=C/c1ccccc1OCC           17.3
3  Cc1ccc(C2NC(=S)N3C(c4ccc(C)cc4)NC(=S)N23)cc1 (centres undefined)           13.9
4                    O=S(=O)(O)c1ccc(Cl)cc1            102

* * *

Test system: HS 578T breast
assay-method-text: NCI-60 one-dose screen, 48 h (100 = growth as untreated, 0 = no growth, -100 = all killed)
experimental-parameters: 10 µM
Compounds without any hit were thinned out: in the full panel of roughly 83,000, 20% have a hit.
experimental-endpoint: growth (%)

molecule	result-number
COc1ccc(-c2nn(-c3cccc(Cl)c3)cc2-c2cc(-c3ccccc3)nc(N)n2)cc1	62
COc1cc2cc(Oc3ccc(NC(=O)Nc4cccc(C(F)(F)F)c4)cc3)c(C)nc2cc1OC	22.5
Nc1cc(-c2ccncc2)c[nH]c1=O	110
O=C1/C=C/[C@@H](O)[C@@H]2C[C@@H](O)C[C@H]2/C=C/CCC[C@@H](C(F)(F)F)O1	74.2
CSc1ccc(-c2cc(-c3ccc(NC(=O)CCCN4CCCC4)cc3)nc(-c3ccc(NC(=O)CCCN4CCCC4)cc3)c2)cc1	55
C=CCn1c(SCC(=O)Nc2ccc(C(=O)/C=C/c3cc(OC)c(OC)c(OC)c3)cc2)nnc1-c1cc(-c2ccc(Cl)cc2)nc2ccccc12	83.7
COc1ccc2c(c1)C(=O)/C(=C/c1ccc([N+](=O)[O-])o1)O2	17.8
O=C(NCCCNS(=O)(=O)c1ccc(Cl)cc1)Nc1ccc(-n2cc(-c3ccncc3)c(-c3ccc(Cl)c(O)c3)n2)cc1	40.9
CC[C@@H](C(=O)[C@@H](C)[C@@H](O)[C@H](C)[C@@H]1O[C@@H]([C@@H](CC)C(=O)N(CC)CC)CC[C@@H]1C)C1O[C@]2(C=CC(=O)[C@]3(CC[C@@](C)([C@H]4CC[C@](O)(CC)[C@H](C)O4)O3)O2)[C@H](C)C[C@@H]1C (some centres undefined)	28.4
c1ccc(/C(=N\Nc2ccc3ccccc3n2)c2ccccn2)cc1	14.7
COc1ccc(C(=O)c2ccccc2CN2C(=O)c3ccccc3C2=O)cc1	105
CCOC(=O)CSc1nc(-c2cc(OC)ccc2OC)cc(-c2ccc(OC)cc2)c1C#N	90.2
COc1cc(C(=O)N2CCN(c3cc4c(cc3F)c(=O)c(C(=O)NO)cn4C3CC3)CC2)cc(OC)c1OC	105
COc1cc2cc(Oc3ccc(NC(=O)c4ccccc4)cc3)c(C)nc2cc1OC	57.1
Nc1nccc(OCCO)n1	107
CC1C(=NC(=O)c2cnccn2)C(C)C(c2ccc(Cl)cc2)NC1c1ccncc1 (centres undefined)	125
O=C(CCNC(=O)c1nc(-c2ccccc2)n(-c2ccc(Cl)cc2)n1)NO	107
Cc1cccc(N=Cc2ccccc2O)c1C	101
COc1cc(C(=O)n2nc(-c3cc(OC)c(OC)c(OC)c3)nc2N)cc(OC)c1OC	103

* * *

System: TK-10 renal
assay-method-text: NCI-60 one-dose screen, 48 h
experimental-parameters: 10 µM
This is part of a sample that, as a whole, favours compounds with a hit. Of some 83,000 tested, about 20% had one in any assay. Calls of active or inactive are those of the source. Rule for the calls: active = growth percent below 10; inactive = the rest.
Labels: active, inactive

molecule	assigned-class
COc1ccc(C2CC(c3cccs3)=NN2c2ccc(S(N)(=O)=O)cc2)cc1 (centres undefined)	inactive
CCCCN(CCCC)C(=O)[C@H](CC)[C@@H]1CC[C@@H](C)[C@@H]([C@H](C)[C@@H](O)[C@@H](C)C(=O)[C@H](CC)C2O[C@]3(C=CC(=O)[C@]4(CC[C@@](C)([C@H]5CC[C@](O)(CC)[C@H](C)O5)O4)O3)[C@H](C)C[C@@H]2C)O1 (some centres undefined)	inactive
COc1ccc(-c2nn(-c3cccc(Cl)c3)cc2-c2cc(-c3cccs3)[nH]c(=S)n2)cc1	inactive
CC(=O)Nc1cc2c(cc1Cl)Cc1cc(Cl)ccc1-2	inactive
COc1ccc(C(=O)N2C=Cc3ccccc3C2C#N)cc1 (centres undefined)	inactive
Nc1cc(Br)c(-c2nn3c(CCC(=O)c4nc5ccccc5[nH]4)nnc3s2)c(Br)c1	inactive
COc1cccc(N=Nc2cccc(OC)c2)c1	inactive
CCOC(=O)c1cc(C(=O)c2cc(OC)c(OC)c(OC)c2)n2ccc(-c3cc[n+](CC(=O)c4cc(OC)c(OC)c(OC)c4)cc3)cc12	inactive
COc1cc(NC(=O)Nc2cnc(Nc3ccc(N4CCOCC4)cc3)nc2Oc2cccc(OC)c2)cc(OC)c1	inactive
CCOC(=O)CSc1nc(-c2cc(OC)ccc2OC)cc(-c2ccc(OC)cc2)c1C#N	inactive
COc1ccc2nc3cc(Cl)ccc3c(Nc3cc(CN4CCCC4)c(O)c(CN4CCCC4)c3)c2n1	inactive
Cc1ccc2nc(Cl)c(-c3nc4ccccc4o3)cc2c1	inactive
COc1cc2c3c(n([C@H]4CCOC4)c(=O)c2cc1OC)-c1cc2c(cc1C3=O)OCO2	inactive
Cc1c2cnccc2c(C)c2c1oc1ccccc12	inactive
CCCCc1oc2ccccc2c1C(=O)c1cc(I)c(OCCN(CC)CC)c(I)c1	active
Cc1ccc(-n2nnnc2N)c(C)c1	inactive
C=CCn1c(SCC(=O)Nc2ccc(C(=O)/C=C/c3cc(OC)c(OC)c(OC)c3)cc2)nnc1-c1cc(-c2ccc(Cl)cc2)nc2ccccc12	inactive
COc1ccc2c(c1)C(=O)/C(=C/c1cccc(OCC(=O)c3ccc([N+](=O)[O-])cc3)c1)CO2	active
IC(I)I	inactive
